target: LPA1 (Homo sapiens, UniProt Q92633); assay: LPA1 Migration Assay (Oris); details: read-out: Cell Migration EC50
Sequence (Q92633 whole entry): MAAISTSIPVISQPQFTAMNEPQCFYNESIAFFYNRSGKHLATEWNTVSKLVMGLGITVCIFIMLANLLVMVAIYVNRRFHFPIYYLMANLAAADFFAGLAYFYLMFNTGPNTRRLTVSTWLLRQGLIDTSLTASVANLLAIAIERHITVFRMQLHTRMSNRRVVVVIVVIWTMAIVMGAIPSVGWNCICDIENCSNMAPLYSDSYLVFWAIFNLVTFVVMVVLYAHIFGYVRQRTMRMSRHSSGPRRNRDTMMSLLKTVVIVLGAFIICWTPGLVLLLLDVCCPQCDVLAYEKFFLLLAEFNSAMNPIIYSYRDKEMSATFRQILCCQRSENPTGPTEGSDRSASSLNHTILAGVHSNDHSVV
pEC50: −log10 of the molar value.
MEASURED_QUANTITY: pEC50

Would you please look over these solved cases?
{"columns": ["SMILES_TEXT", "TARGET_OF_ASSAY", "pEC50"],
 "data": [
  ["Cc1cc(CC(=O)O)ccc1-c1cc2sc(-c3snc(C)c3NC(=O)O[C@H](C)c3ccccc3)cc2s1", "LPA1 (Homo sapiens, UniProt Q92633)", "< 6.30"],
  ["Cc1noc(-c2ccc(-c3ccc(OC(C)(C)C(=O)O)cc3)cc2)c1NC(=O)O[C@H](C)c1ccccc1", "LPA1 (Homo sapiens, UniProt Q92633)", "> 7.30"],
  ["Cc1nnn(-c2ccc(-c3cc(F)c(OC4(C(=O)O)CC4)c(F)c3)cc2)c1NC(=O)O[C@H](C)c1ccccc1", "LPA1 (Homo sapiens, UniProt Q92633)", "< 6.30"]
]}

Continue with the compound presented below.
Tested on LPA1 (Homo sapiens, UniProt Q92633): `Cc1noc(-c2ccc(-c3nc4sc(C5(C(=O)O)CC5)cc4s3)cc2)c1NC(=O)O[C@H](C)c1ccccc1` . Observed pEC50: 6.30 to 7.30

====

target: LPA/S1P GPCR of interest (Homo sapiens, UniProt Q92633); test: Beta-Arrestin based assay (PathHunter)
pEC50: −log10 of the molar value.
MEASURED_QUANTITY: pEC50

Solved cases (6 shown):
{"columns": ["SMILES_TEXT", "pEC50"],
 "data": [
  ["C[C@@H](OC(=O)Nc1c(-c2cc3sc(-c4ccc(C5(C(=O)O)CC5)cc4OC(F)(F)F)cc3s2)nnn1C)c1ccccc1", "6.30 to 7.30"],
  ["C[C@@H](OC(=O)Nc1c(-c2cc3sc(-c4ccc(CC(=O)O)cc4N)cc3s2)cnn1C)c1ccccc1", "< 6.30"],
  ["C[C@@H](OC(=O)Nc1c(-c2ccc(-c3ccc(Oc4ccccc4C(=O)O)cc3)cc2)nnn1C)c1ccccc1", "> 7.30"],
  ["C[C@@H](OC(=O)Nc1c(-c2cc3sc(-c4ccc5occ(CC(=O)O)c5c4)cc3s2)nnn1C)c1ccccc1", "6.30 to 7.30"],
  ["C[C@@H](OC(=O)Nc1c(-c2ccc(-c3cc(F)c(Oc4cccnc4C(=O)O)c(F)c3)cc2)cnn1C)c1ccccc1", "> 7.30"],
  ["CC(C)[C@H](NC(=O)C#Cc1ccc(-c2cnn(C)c2NC(=O)O[C@H](C)c2ccccc2)cc1)C(=O)O", "< 6.30"]
]}

Reported pEC50 of `C[C@@H](OC(=O)Nc1c(-c2cc3sc(-c4ccc(CC(=O)O)c(S(C)(=O)=O)c4)cc3s2)nnn1C)c1ccccc1` : < 6.30

Lab book: pEC50 of `Cc1noc(-c2ccc(-c3ccc(OC(F)(F)C(=O)O)cc3)cc2)c1NC(=O)O[C@H](C)c1ccccc1` noted as > 7.30

The reported pEC50 of the molecule `C[C@@H](OC(=O)Nc1c(C#Cc2cc3sc(C4(C(=O)O)CC4)cc3s2)cnn1C)c1c(F)c(F)c(F)c(F)c1F` was < 6.30

Value of measured pEC50 for the entry `Cc1nsc(-c2ccc(-c3ccc(C4(C(=O)O)CC4)s3)cc2)c1NC(=O)O[C@H](C)c1ccccc1` : 6.30 to 7.30

Per the records, this molecule ( `C[C@@H](OC(=O)Nc1c(-c2cc3sc(-c4ccc5scc(CC(=O)O)c5c4)cc3s2)nnn1C)c1ccccc1` ) has pEC50 equal to > 7.30

Field pEC50 (entry `C[C@@H](OC(=O)Nc1c(-c2ccc(-c3ccc(C4(C(=O)O)CC4)c4c3CCC4)cc2)cnn1C)c1ccccc1` ) reads > 7.30

Noted for `C[C@@H](OC(=O)Nc1c(-c2cc3sc(-c4ccc(-c5nnc(C6(C(=O)O)CC6)s5)cc4)cc3s2)cnn1C)c1ccccc1` : its pEC50 reads < 6.30

pEC50 for `Cc1noc(-c2ccc(-c3cc(F)c(Oc4ccsc4C(=O)O)c(F)c3)cc2)c1NC(=O)O[C@H](C)c1ccccc1` is > 7.30

Summary for this molecule, `COc1cc(CC(=O)O)c(F)cc1-c1cc2sc(-c3cnn(C)c3NC(=O)O[C@H](C)c3ccccc3)cc2s1` : pEC50 is < 6.30
